assay.notes: Fraction of soluble product on expression in E. coli, estimated from SDS-PAGE
Assay type: physicochemical
condition.info: Table 7; Ylib002Naive.I selection; MGSSHHHHHHGSS-[Y#####]-A
Procedure: E. coli T7E2 cells were transformed with plasmids containing the gene fragment of each respective Y variant. The resulting recombinant strains were generally cultivated in media supplemented with 50 μg/ml kanamycin at 30-37° C. in 50 ml scale using the EnPresso protocol (Enpresso GmbH). In order to induce protein expression, isopropyl-β-D-1-thiogalactopyranoside (IPTG) was added to a final concentration of 0.5 mM at an optical density at 600 nm (OD600) of approximately 10. […]
Would you mind telling me the reported Estimated soluble fraction of each entry?
Could you give me the number in %? Just the number is fine.

[ask] Item Y02447: IL-6 binding Y variant from Ylib002Naive.I, SEQ ID NO:76 (LAEAKEAAIAELDSKGVGAHGIKEIQDAILVEIVQLLKQAILAALPA; Engineered IL-6 binding Y variant) : provide Estimated soluble fraction
[reply] 100

[ask] Look up Estimated soluble fraction of Y02310: C4 binding Y variant from Ylib002Naive.I, SEQ ID NO:36 (LAEAKEAAIAELDSKGVGADLIKKIQYADTVEGVQFWKQEILAWLPA; Engineered C4 binding Y variant) and report it.
[reply] 100

[ask] Find the measured Estimated soluble fraction of Y02415: IL-6 binding Y variant from Ylib002Naive.I, SEQ ID NO:74 (LAEAKEAAIAELDSKGVGAGDIKDIQDALLVEIVQLLKQAILAVLPA; Engineered IL-6 binding Y variant) and report it.
[reply] 100

---

assay.notes: Circular dichroism spectroscopy analysis (CD spectra, variable temperature measurement, refolding)
Type: physicochemical
condition.info: Table 9, mutation study 5; MGSSHHHHHHGSS-[Y#####]-A
Description: The respective Y variant was diluted to 0.5 mg/ml in PBS. A CD spectrum at 250-195 nm was obtained at 20° C. In addition, a variable temperature measurement (VTM) was performed to determine the melting temperature (Tm). In the VTM, absorbance was measured at 221 nm while the temperature was raised from 20° C. to 90° C. with a temperature gradient of 5° C./min. A new CD spectrum was obtained at 20° C. after the heating procedure, in order to study the refolding ability of the Y variants. […]
Kindly return YES if reported Tm is no lower than 60 °C; return NO if it is lower.

[ask] Determine whether this substance has Tm no lower than 60 °C: Y02687: C4 binding Y variant, Y00792 with Q26E, SEQ ID NO:42 (LAEAKEAAIAELDSKGVGADLIKKIEQASSVEGVQFWKQEILAQLPA; Engineered C4 binding Y variant)
[reply] NO

[ask] API: above_or_equal(metric=Tm, cutoff=60 °C) for item Y02709: insulin binding Y variant, Y00358 with I9L, SEQ ID NO:149 (LAEAKEAALAELDSKGVGAAKIKWIQDAKSVETVQFLKQAILAELPA; Engineered insulin binding Y variant)
[reply] NO

[ask] Is reported Tm greater than or equal to 60 °C here: Y02711: insulin binding Y variant, Y00358 with Q26E, SEQ ID NO:151 (LAEAKEAAIAELDSKGVGAAKIKWIEDAKSVETVQFLKQAILAELPA; Engineered insulin binding Y variant)
[reply] YES

[ask] hey, is Tm for this one >= 60 °C? Y02691: C4 binding Y variant, Y00792 with K15Y Q26E, SEQ ID NO:46 (LAEAKEAAIAELDSYGVGADLIKKIEQASSVEGVQFWKQEILAQLPA; Engineered C4 binding Y variant)
[reply] NO

[ask] Could you tell me if the measured Tm of Y02685: C4 binding Y variant, Y00792 with I9L, SEQ ID NO:40 (LAEAKEAALAELDSKGVGADLIKKIQQASSVEGVQFWKQEILAQLPA; Engineered C4 binding Y variant) reaches 60 °C or more?
[reply] NO

[ask] Tell me whether Tm is at least 60 °C here: Y02692: C4 binding Y variant, Y02309 with K15Y Q26E, SEQ ID NO:47 (LAEAKEAAIAELDSYGVGADLIKKIEKAESVEGVQFWKQEILATLPA; Engineered C4 binding Y variant)
[reply] NO
